Exercise: state measured EC50 for each of the molecules provided.
Biological target: LXRβ full length (FL) (Homo sapiens, UniProt P55055, INS174Q)
Construct: the full length (FL) proteins of LXRα (amino acids 1-447); NP005684; NP009052
Test: LXR Gal4 reporter transient transfection assay, mammalian two-hybrid, FL-M2H Gal4β
Conditions: HEK293 cells; inverse agonist unless *

EC50 reported for this molecule "Cc1ccc2cnccc2c1C(=O)N(Cc1ccc(-c2cccc(C(C)(C)C(=O)O)c2)cc1)Cc1ccc(C(F)(F)F)o1" : < 100 nM

EC50 reported for this molecule CC1CCc2ccccc2N1C(=O)N(Cc1ccc(-c2cccc(C(C)(C)C(=O)O)c2)cc1)Cc1ccc(C(F)(F)F)o1 (stereo not shown) : < 100 nM

EC50 reported for this molecule "Cc1nc2cccnn2c1C(=O)N(Cc1ccc(-c2cccc(C(C)(C)C(=O)O)c2)cc1)Cc1ccc(C(F)(F)F)o1" : 100 to 1000 nM

EC50 reported for this molecule "Cc1ccc2ccccc2c1CN(Cc1ccc(-c2cccc([C@H](C)C(=O)O)c2)cc1)Cc1ccc(C(F)(F)F)o1" : < 100 nM

###

Molecular target: LXRβ full length (FL) (Homo sapiens, UniProt P55055, INS174Q)
Construct: the full length (FL) proteins of LXRα (amino acids 1-447); NP005684; NP009052
Sequence (P55055 with tags, fused parts or gaps INS174Q): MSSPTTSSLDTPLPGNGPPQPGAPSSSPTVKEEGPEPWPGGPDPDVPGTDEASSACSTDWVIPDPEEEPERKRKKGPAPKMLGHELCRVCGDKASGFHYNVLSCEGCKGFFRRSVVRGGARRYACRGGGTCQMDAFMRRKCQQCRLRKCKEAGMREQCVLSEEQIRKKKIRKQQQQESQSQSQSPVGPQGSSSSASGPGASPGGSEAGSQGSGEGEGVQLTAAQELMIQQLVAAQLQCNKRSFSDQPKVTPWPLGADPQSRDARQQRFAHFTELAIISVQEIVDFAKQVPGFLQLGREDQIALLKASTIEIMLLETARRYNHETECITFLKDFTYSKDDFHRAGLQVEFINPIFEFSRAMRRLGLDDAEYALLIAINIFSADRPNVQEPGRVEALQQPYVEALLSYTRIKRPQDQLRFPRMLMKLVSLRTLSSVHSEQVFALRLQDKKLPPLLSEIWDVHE
Assay: LXR Gal4 reporter transient transfection assay, mammalian two-hybrid, FL-M2H Gal4β
Settings: HEK293 cells; inverse agonist unless *
pEC50: −log10 of the molar value.
measurement_kind: pEC50

pEC50 reported for this compound "CC(C)(C(=O)O)c1cccc(-c2ccc(CN(Cc3ccc(C(F)(F)F)o3)Cc3cccc4c3CCCO4)cc2)c1" : > 7.00

pEC50 reported for this compound "Cc1cc(C(=O)N(Cc2ccc(-c3cccc(C(C)(C)C(=O)O)c3)cc2)Cc2ccc(C(F)(F)F)o2)c2ccc(F)cc2n1" : 6.00 to 7.00

pEC50 reported for this compound "Cc1nc2cccnc2c(C(=O)N(Cc2ccc(-c3cc(F)cc(C4(C(=O)O)CC4)c3)cc2)Cc2ccc(C(F)(F)F)o2)c1C" : > 7.00

pEC50 reported for this compound "Cc1nn2ncccc2c1C(=O)N(Cc1ccc(-c2cccc(C(C)(C)C(=O)O)c2)cc1)Cc1ccc(C(F)(F)F)o1" : 6.00 to 7.00

pEC50 reported for this compound "CCc1ccc2ccccc2c1CN(Cc1ccc(-c2cccc(C(C)(C)C(=O)O)c2)cc1)Cc1ccc(C(F)(F)F)o1" : > 7.00

pEC50 reported for this compound "Cc1ccc2ccccc2c1C(=O)N(Cc1ccc(-c2cccc(C(C)(C)CC(=O)O)c2)cc1)Cc1ccc(C(F)(F)F)o1" : > 7.00

pEC50 reported for this compound "Cc1ccc2ccccc2c1C(=O)N(Cc1ccc(C(F)(F)F)o1)Cc1ccc(-c2cccc(C(C)(C)C(=O)O)c2)cc1C#N" : > 7.00

pEC50 reported for this compound "Cc1cc(C)c(CN(Cc2ccc(C(F)(F)F)o2)Cc2ccc(-c3cccc(S(=O)(=O)CC(=O)O)c3)cc2C)c(C)c1" : 6.00 to 7.00

pEC50 reported for this compound "CCOC(=O)c1ccc(CN(Cc2ccc(-c3cccc(C(C)(C)C(=O)O)c3)cc2)C(=O)c2c(C)ccc3ccccc23)o1" : > 7.00

pEC50 reported for this compound "CCc1cc(-c2cncc(C(C)(C)C(=O)O)c2)ccc1CN(Cc1ccc(C(F)(F)F)o1)C(=O)c1c(C)ccc2ccccc12" : > 7.00

pEC50 reported for this compound "Cc1cc(C)c(CN(Cc2ccc(-c3cccc(S(=O)(=O)CC(=O)NS(C)(=O)=O)c3)cc2)Cc2ccc(C(F)(F)F)o2)c(C)c1" : 6.00 to 7.00

pEC50 reported for this compound "Cc1nc2ccccn2c1C(=O)N(Cc1ccc(-c2cccc(C(C)(C)C(=O)O)c2)cc1)Cc1ccc(C(F)(F)F)o1" : 6.00 to 7.00

pEC50 reported for this compound "O=C(O)CS(=O)(=O)c1cccc(-c2ccc(CN(Cc3ccc(C(F)(F)F)o3)C(=O)c3c(OC(F)F)ccc4ccccc34)cc2)c1" : 6.00 to 7.00

pEC50 reported for this compound "Cc1nc2ncccn2c1C(=O)N(Cc1ccc(-c2cccc(C(C)(C)C(=O)O)c2)cc1)Cc1ccc(C(F)(F)F)o1" : 5.00 to 6.00

###

Exercise: state measured EC50 for each of the compounds provided.
Target: LXRβ full length (FL) (Homo sapiens, UniProt P55055, INS174Q)
Construct: the full length (FL) proteins of LXRα (amino acids 1-447); NP005684; NP009052
Experiment: LXR Gal4 reporter transient transfection assay, mammalian two-hybrid, FL-M2H Gal4β
Settings: HEK293 cells; inverse agonist unless *

EC50 reported for this compound Cc1nc2cccnc2c(C(=O)N(Cc2ccc(-c3cccc(C4(C(=O)O)CC4)c3)cc2)Cc2ccc(C(F)(F)F)o2)c1C [27/112] : < 100 nM

EC50 reported for this compound CC(c1cccc2ncccc12)N(Cc1ccc(-c2cccc(S(=O)(=O)CC(=O)O)c2)cc1)Cc1ccc(C(F)(F)F)o1 (stereo not shown) [27/8] : 100 to 1000 nM

EC50 reported for this compound CC(C)(C(=O)O)c1cccc(-c2ccc(CN(Cc3ccc(C(F)(F)F)o3)C(=O)c3c4ccccc4nc4ccccc34)cc2)c1 [27/31] : < 100 nM

EC50 reported for this compound Cc1ccc2ccccc2c1C(=O)N(Cc1ccc(-c2cccc(C(C)(C)c3noc(=O)[nH]3)c2)cc1)Cc1ccc(C(F)(F)F)o1 [Example 29] : < 100 nM

EC50 reported for this compound COc1ncc(CN(Cc2ccc(-c3cccc(C(C)(C)C(=O)O)c3)cc2)Cc2ccc(C(F)(F)F)o2)c2ccccc12 [27/19] : < 100 nM

EC50 reported for this compound COc1cc(-c2cccc(S(=O)(=O)CC(=O)O)c2)ccc1CN(Cc1ccc(C(F)(F)F)o1)C(=O)c1c(C)ccc2ccccc12 [27/61] : 100 to 1000 nM

EC50 reported for this compound Cc1nc2ccccc2c(C(=O)N(Cc2ccc(C(F)(F)F)o2)Cc2ccc(-c3cccc(C(C)(C)C(=O)O)c3)cc2C#N)c1C [27/105] : < 100 nM

###

Experiment: Pharmacokinetics in mice after single oral dosing, blood and liver exposure by LC-MS
Type: in vivo, mice (C57/bl6/J)
Details: single oral dose 20 mg/kg, time point 12 h
Exercise: state measured liver exposure for each of the compounds provided.
Field: numeric (µM). Do not append units.

liver exposure reported for this compound Cc1cc(C)c(CN(Cc2ccc(-c3cncc(S(=O)(=O)CC(=O)O)c3)cc2)Cc2ccc(C(F)(F)F)o2)c(C)c1 [12/2] : 0.83

liver exposure reported for this compound Cc1ccc2ccccc2c1CN(Cc1ccc(-c2cccc(C(C)(C)C(=O)O)c2)cc1)Cc1ccc(C(F)(F)F)o1 [Example 24] : 1.2

liver exposure reported for this compound CCc1nc2ccccc2c(C(=O)N(Cc2ccc(-c3cccc(C(C)(C)C(=O)O)c3)cc2)Cc2ccc(C(F)(F)F)o2)c1C [27/43] : 1.3

liver exposure reported for this compound Cc1cc(C)c(C(=O)N(Cc2ccc(-c3cccc(S(=O)(=O)CC(=O)O)c3)cc2)Cc2ccc(C(F)(F)F)o2)c(C)c1 [Example 4] : 3.45

liver exposure reported for this compound Cc1cc(C)c(CN(Cc2ccc(-c3cccc(C(C)(C)C(=O)O)c3)cc2)Cc2ccc(C(F)(F)F)o2)c(C)c1 [Example 10] : 1.5

liver exposure reported for this compound Cc1ccc2ccccc2c1C(=O)N(Cc1ccc(-c2cccc(C(C)(O)C(=O)O)c2)cc1)Cc1ccc(C(F)(F)F)o1 (stereo not shown) [27/10] : 1.3

liver exposure reported for this compound Cc1ccc2ccccc2c1C(=O)N(Cc1ccc(-c2cccc(C(C)(C)C(=O)O)c2)cc1)Cc1ccc(C(F)(F)F)o1 [27/26] : 21

###

Assay: Short term HFD mouse model: liver and plasma exposure after multiple oral dosing
Type: in vivo, mice (C57BL/6J)
Settings: C57BL/6J, liver/plasma, HFD mice, three oral doses of 10 mg/kg each, 4 h after final dose, read-out: liver/plasma ratio, 4 h
measurement_kind: Kp at 4 h
Please give only the number in your answer, with no unit.

Kp at 4 h reported for this molecule "COc1c(C)nc2ccccc2c1C(=O)N(Cc1ccc(-c2cccc(C(C)(C)C(=O)O)c2)cc1)Cc1ccc(C(F)(F)F)o1" : 50.8

Kp at 4 h reported for this molecule "COc1cc(-c2cccc(C(C)(C)C(=O)O)c2)ccc1CN(Cc1ccc(C(F)(F)F)o1)C(=O)c1c(C)ccc2ccccc12" : 189

Kp at 4 h reported for this molecule "Cc1ccc2ccccc2c1C(=O)N(Cc1ccc(-c2cccc(C(C)(C)C(=O)O)c2)cc1)Cc1ccc(C(F)F)o1" : 26.6

Kp at 4 h reported for this molecule "Cc1nc2cccnc2c(C(=O)N(Cc2ccc(-c3cccc(C(C)(C)C(=O)O)c3)cc2)Cc2ccc(C(F)(F)F)o2)c1C" : 73.7

Kp at 4 h reported for this molecule "Cc1ccc2ccccc2c1C(=O)N(Cc1ccc(-c2cccc([C@@H](C)C(=O)O)c2)cc1)Cc1ccc(C(F)(F)F)o1" : 7.9
